# reported Reduction; entries follow
# System: Trichinella spiralis
# Measurement notes: Percent reduction of viability of Trichinella spiralis muscle larvae at a concentration of 3*10e-4 uM
# Type: functional

Check out these entries, answers already filled in.
{"Structure smiles": "Cn1c(C(F)(F)F)nc2cc(Cl)ccc21", "Reduction": "16%"}
{"Structure smiles": "CCCSc1ccc2[nH]c(NC(=O)OC)nc2c1", "Reduction": "20%"}
{"Structure smiles": "FC(F)(F)c1nc2cc(Cl)c(Cl)cc2[nH]1", "Reduction": "9%"}
{"Structure smiles": "FC(F)(F)c1nc2ccccc2[nH]1", "Reduction": "3%"}
{"Structure smiles": "Cn1c(C(F)(F)F)nc2ccccc21", "Reduction": "9%"}

Record for Cn1c(C(F)(F)F)nc2cc(Cl)c(Cl)cc21 under target or system Trichinella spiralis: Reduction reported as 9%

====

# Species on record: Rattus norvegicus
# Measurement notes: Tested for inhibition of tubulin polymerization in rat brain at a concentration of 3*10e-3 uM
# Assay type: functional
# reported Viscosity; entries follow
A bare number is all that is needed in reply.

{"Structure smiles": "Cn1c(C(F)(F)F)nc2ccc(Cl)cc21", "Viscosity": 7.39}
{"Structure smiles": "CCCSc1ccc2[nH]c(NC(=O)OC)nc2c1", "Viscosity": 2.07}
{"Structure smiles": "FC(F)(F)c1nc2ccccc2[nH]1", "Viscosity": 7.56}

The reported value for Cn1c(C(F)(F)F)nc2cc(Cl)c(Cl)cc21 in terms of Viscosity is 7.63

The reported value for FC(F)(F)c1nc2cc(Cl)c(Cl)cc2[nH]1 in terms of Viscosity is 7.03

The reported value for FC(F)(F)c1nc2cc(Cl)ccc2[nH]1 in terms of Viscosity is 6.7

The reported value for Cn1c(C(F)(F)F)nc2cc(Cl)ccc21 in terms of Viscosity is 7.58

The reported value for Cn1c(C(F)(F)F)nc2ccccc21 in terms of Viscosity is 7.41

====

# Organism: Rattus norvegicus
# Measurement notes: Tested for inhibition of tubulin polymerization in rat brain at a concentration of 0.015 uM
# Format: functional
Please use MET whenever Viscosity is not below 7, and NOT MET whenever it is.

Worked set:
{"Structure smiles": "Cn1c(C(F)(F)F)nc2cc(Cl)c(Cl)cc21", "Group label": "NOT MET"}
{"Structure smiles": "Cn1c(C(F)(F)F)nc2ccccc21", "Group label": "MET"}
{"Structure smiles": "FC(F)(F)c1nc2ccccc2[nH]1", "Group label": "MET"}

Task item: Hi team, for FC(F)(F)c1nc2cc(Cl)c(Cl)cc2[nH]1 , is the recorded Viscosity at or above 7?
Reply: NOT MET

====

# Species: Rattus norvegicus
# Measurement notes: Tested for inhibition of tubulin polymerization in rat brain at a concentration of 3*10e-5 uM
# Assay type: functional
# reported Viscosity; entries follow
A bare number is all that is needed in reply.

Check out these entries, answers already filled in.
{"Structure smiles": "Cn1c(C(F)(F)F)nc2cc(Cl)c(Cl)cc21", "Viscosity": 6.93}
{"Structure smiles": "Cn1c(C(F)(F)F)nc2ccccc21", "Viscosity": 6.68}
{"Structure smiles": "Cn1c(C(F)(F)F)nc2ccc(Cl)cc21", "Viscosity": 6.44}
{"Structure smiles": "CCCSc1ccc2[nH]c(NC(=O)OC)nc2c1", "Viscosity": 7.04}
{"Structure smiles": "FC(F)(F)c1nc2cc(Cl)ccc2[nH]1", "Viscosity": 6.59}

The reported value for Cn1c(C(F)(F)F)nc2cc(Cl)ccc21 in terms of Viscosity is 7.3

The reported value for FC(F)(F)c1nc2cc(Cl)c(Cl)cc2[nH]1 in terms of Viscosity is 7

The reported value for FC(F)(F)c1nc2ccccc2[nH]1 in terms of Viscosity is 7.55

====

# Species: Rattus norvegicus
# Measurement notes: Tested for inhibition of tubulin polymerization in rat brain at a concentration of 0.015 uM
# Format: functional
Outcome measure: Viscosity
A bare number is all that is needed in reply.

{"Structure smiles": "Cn1c(C(F)(F)F)nc2cc(Cl)ccc21", "Viscosity": 6.94}
{"Structure smiles": "Cn1c(C(F)(F)F)nc2ccc(Cl)cc21", "Viscosity": 7.07}

Next, consider the following compound.
The reported value for FC(F)(F)c1nc2cc(Cl)ccc2[nH]1 in terms of Viscosity is 7.14

Where do these numbers come from? They come from ChEMBL document CHEMBL1133780.
